# Assay Name: Quantitative highthroughput screen to assess conditional lethalithy of SEM cells grown in Human Plasma-Like Medium with dialyzed fetal bovine serum (HPLM+ds) (AID 1963882); also: nearly all actives have a fitted effect of over 35% in size
# Cond: SEM B-ALL cells in HPLM+ds, CellTiter-Glo viability, 48 h; series mostly up to 45.8 µM
Records with an inconclusive call do not appear. The source made the active and inactive calls. Calls follow the shape of the dose curve; as a rule, active = well fitted cell-killing curve with a large enough effect; inconclusive = small, poorly fitted or top-dose-only effect, or effect the other way; inactive = no such curve, though single readings can be large or run the other way.
Outcomes you can answer with include only these: active, inactive

Examples from the recorded data:
Returns: the outcome recorded for `O=C(Cc1cccc(OC(F)(F)F)c1)Nc1ccc(CCCCc2nnc(NC(=O)Cc3ccccn3)s2)nn1` in this assay. active

Returns: the outcome recorded for CCC(C)N(C)C(=O)c1cc2ccccc2c(-c2ccccc2Cl)n1 (centres undefined) in this assay. inactive

Returns: the outcome recorded for `NS(=O)(=O)OC[C@@H]1C[C@@H](n2ccc3c(N[C@H]4CCc5ccccc54)ncnc32)C[C@H]1O` in this assay. active

Returns: the outcome recorded for `NS(=O)(=O)NCCNc1nonc1C(=Nc1ccc(F)c(Br)c1)NO` in this assay. active

More entries:
Returns: the outcome recorded for `C=CC(=O)Nc1ccc2ncnc(Nc3ccc(OCc4cccc(F)c4)c(Cl)c3)c2c1` in this assay. active

Returns: the outcome recorded for `COc1nc(-c2ccc3c(c2)OCO3)n(-c2ccc(NC(=O)CSc3ccccc3)cc2)n1` in this assay. inactive

Returns: the outcome recorded for `COc1cccc(-c2ccc(NC(=O)C3=C(C(=O)O)CCC3)c(F)c2)c1` in this assay. inactive

Returns: the outcome recorded for `O=C1N(c2ccccc2)c2ccccc2C1(Cc1ccncc1)Cc1ccncc1` in this assay. inactive

Returns: the outcome recorded for `Fc1ccc(C(c2ccc(F)cc2)N2CCN(CC=Cc3ccccc3)CC2)cc1` in this assay. inactive

Returns: the outcome recorded for `Cc1ccc(C(=O)Nc2ccc(Oc3cc4cnn(C)c4cc3-c3cn[nH]c3)c(F)c2)c(=O)n1-c1ccc(F)cc1` in this assay. active

meta.source: PubChem BioAssay (NCATS)
